Test: chemical genetic growth profiling, strain panel (AID 1159580);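 also: tested at 20 µM; growth read once vehicle control cultures reached saturation at 30 °C; 1 = growth at the plate median or of vehicle wells; lower values mean less growth of the strain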
Details: S. cerevisiae deletion strains, growth OD, locus YGL253W, strain hxk2, stronger effect = lower value
Among all 5,500 compounds or so, about 2,000 (36%) were called active. Another 18% or so got no clear call; they are omitted. Some of the results follow.
Recorded Endpoint: normalized growth

[[record]]
molecule = "O=C(O)/C=C/c1ccc(O)c(O)c1"
experimental_result = "1 (inactive)"


Data request: Hello, please tell me recorded normalized growth for this one: CCOC(=O)n1ccn(C)c1=S
Data returned: 0.998 (inactive)

Data request: Recall and state the measured normalized growth for COC(=O)/C=C/C(C)=C/C=C/C(C)=C/C=C/C=C(C)/C=C/C=C(C)/C=C/C(=O)O .
Data returned: 1.02 (inactive)

Data request: Item O=C(O[C@@H]1Cc2c(O)cc(O)cc2O[C@@H]1c1ccc(O)c(O)c1)c1cc(O)c(O)c(O)c1 : provide normalized growth
Data returned: 0.979 (inactive)

Data request: Quote normalized growth reported for CC1CCc2cc(F)cc3c(=O)c(C(=O)O)cn1c23 (stereo not drawn) please.
Data returned: 0.995 (inactive)

Data request: Return reported normalized growth. Input molecule: O=S(=O)(O)c1cc(N=C=S)ccc1/C=C/c1ccc(N=C=S)cc1S(=O)(=O)O
Data returned: 1.03 (inactive)

Data request: Report normalized growth, nothing else, for this molecule: O=C(O)CCCc1ccccc1
Data returned: 0.974 (inactive)

Data request: Annotate the molecule Clc1ccc(C(OCCN2CCCCC2)c2ccccc2)cc1 (stereo not drawn) with its measured normalized growth.
Data returned: 1.02 (inactive)

Data request: Give normalized growth for CN1CCC(OC(c2ccccc2)c2ccccc2)CC1
Data returned: 0.987 (inactive)
